molecular target: UniProt O43613; assay: Calcium accumulation in cells (FLIPR), hOx1R; settings: inhibition of orexin A induced calcium accumulation, Cheng and Prusoff correction
MEASUREMENT_KIND: Ki (nM)
Please give a number only; it is taken to be in nM.

According to the records, this molecule O=C1N(Cc2cncn2-c2ccccc2)CCCC12CCN(c1cnc3ccccc3n1)CC2 [Example 110] displays Ki of 4210

Short answer for COc1cccc(CN2CCCC3(CCN(c4cnc5ccccc5n4)CC3)C2=O)c1F [Example 102] : Ki was 2430

Sure, the documented Ki for Cc1cnc(-c2cccc(CN3CCCC4(CCN(c5cnc6ccccc6n5)CC4)C3=O)c2)o1 [Example 147] is 94

For record O=C1CCCC2(CCN(c3nc4ccc(Cl)cc4o3)CC2)N1Cc1cccc2[nH]ccc12 [Example 139] the listed Ki is 541

Per the record, Cc1ccc(-n2nccn2)cc1CN1CCCC2(CCN(c3cnc4ccccc4n3)CC2)C1=O [Example 128] has Ki of 967

Data point: O=C1N(Cc2ccnc(Br)c2)CCCC12CCN(c1cnc3ccccc3n1)CC2 [Example 72] ; Ki = 3100

Entry under test: O=C1N(Cc2cccc3c2OCCN3)CCCC12CCN(c1cnc3ccccc3n1)CC2 [Example 132] . Its Ki was 3180

###

molecular target: UniProt O43613; experiment: Calcium accumulation in cells (FLIPR), hOx1R; conditions: inhibition of orexin A induced calcium accumulation, Cheng and Prusoff correction
MEASUREMENT_KIND: Ki

Form field Ki for item O=C1N(Cc2cccc3nsnc23)CCCC12CCN(c1cnc3ccccc3n1)CC2 on UniProt O43613: 1.36 µM

Item O=C1N(Cc2cc(=O)[nH]c3ccccc23)CCCC12CCN(c1cnc3ccccc3n1)CC2 was tested on UniProt O43613; the reported Ki is 2.4 µM

So the reported Ki for Cc1nc(CN2CCCC3(CCN(c4cnc5ccccc5n4)CC3)C2=O)c(-c2cccc(F)c2)s1 , on UniProt O43613, turned out to be 0.438 µM

N#Cc1ccccc1CN1CCCC2(CCN(c3cnc4ccccc4n3)CC2)C1=O tested on UniProt O43613 gave Ki: 0.932 µM

Measured Ki (UniProt O43613), entry O=C1N(Cc2cccc(-c3cnccn3)c2)CCCC12CCN(c1cnc3ccccc3n1)CC2 : 0.357 µM

Measured Ki for this entry Cc1[nH]c2ccccc2c1CN1CCCC2(CCN(c3cnc4ccccc4n3)CC2)C1=O on UniProt O43613: 1.15 µM

###

target: hOx1R (Homo sapiens (Human), UniProt O43613); test: Radioligand binding assay, [125I]orexin A, hOx1R; details: radioligand [125I]orexin A, competition
Sequence (O43613 whole entry): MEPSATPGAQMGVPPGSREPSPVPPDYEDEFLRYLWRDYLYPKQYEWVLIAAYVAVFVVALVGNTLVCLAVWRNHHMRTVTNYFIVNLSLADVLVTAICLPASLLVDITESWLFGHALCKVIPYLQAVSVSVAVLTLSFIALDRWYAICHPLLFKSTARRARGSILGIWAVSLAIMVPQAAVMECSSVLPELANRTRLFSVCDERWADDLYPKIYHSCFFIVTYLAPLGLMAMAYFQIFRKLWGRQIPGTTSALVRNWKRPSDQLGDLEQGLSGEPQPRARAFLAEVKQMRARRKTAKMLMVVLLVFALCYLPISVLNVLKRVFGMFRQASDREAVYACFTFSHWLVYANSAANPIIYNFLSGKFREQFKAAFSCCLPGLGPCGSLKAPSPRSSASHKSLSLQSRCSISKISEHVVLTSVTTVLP
MEASUREMENT_KIND: pKd
Convention used: pKd is expressed as -log10 of the molar concentration.

# pKd of Cc1cc2c(CN3CCCC4(CCN(c5cnc6ccccc6n5)CC4)C3=O)cccc2[nH]1 [Example 13] = 6.11

The compound listed as O=C1N(Cc2cccc3c2OCCO3)CCCC12CCN(c1cnc3ccccc3n1)CC2 [Example 4] has a reported pKd of 5.69

// pKd value for Cc1cccc(CN2CCCC3(CCN(c4cnc5ccccc5n4)CC3)C2=O)c1 [Example 15] : 5.86

Measured pKd of O=C1N(Cc2ccccc2C(F)(F)F)CCCC12CCN(c1cnc3ccccc3n1)CC2 [Example 23] : 5.35

Entry O=C1N(Cc2cccc3ccccc23)CCCC12CCN(c1cnc3ccccc3n1)CC2 [Example 2] ; pKd = 6.44

The measured pKd associated with O=C1N(Cc2cccc(-c3ccccn3)c2)CCCC12CCN(c1cnc3ccccc3n1)CC2 [Example 54] reads 6.20

// recorded pKd for O=C1N(Cc2cccc3[nH]ccc23)CCCC12CCN(c1cnc3ccccc3n1)CC2 [Example 3] : 6.20

The origin of these recorded values is patent US8530648B2.
